# test.target: Cytochrome P450 3A4 (Homo sapiens) (UniProt P08684)
# Sequence (P08684 whole entry, looked up): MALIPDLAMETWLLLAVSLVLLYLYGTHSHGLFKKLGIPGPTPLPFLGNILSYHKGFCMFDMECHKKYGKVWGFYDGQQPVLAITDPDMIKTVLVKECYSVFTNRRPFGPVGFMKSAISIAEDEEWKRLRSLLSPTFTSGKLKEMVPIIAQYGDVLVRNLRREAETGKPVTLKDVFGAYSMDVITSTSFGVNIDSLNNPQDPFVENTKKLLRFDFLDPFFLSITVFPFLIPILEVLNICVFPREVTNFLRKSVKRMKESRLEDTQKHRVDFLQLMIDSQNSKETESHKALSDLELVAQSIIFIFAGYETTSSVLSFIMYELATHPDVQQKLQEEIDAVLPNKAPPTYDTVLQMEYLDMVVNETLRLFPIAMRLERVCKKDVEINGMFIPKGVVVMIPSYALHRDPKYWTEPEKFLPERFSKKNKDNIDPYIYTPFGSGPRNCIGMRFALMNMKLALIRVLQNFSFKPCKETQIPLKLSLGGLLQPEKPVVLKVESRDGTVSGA
# assay: Cytochrome P450 Family 3 Subfamily A Member 4 (CYP3A4) small molecule antagonists: luciferase reporter qHTS assay (AID 1671201); further: nearly all actives have a fitted effect of over 50% in size
# condition.info: P450-Glo CYP3A4 enzyme, luciferin luminescence, 1 h; series mostly up to 115 µM
# Source text: National Center for Advancing Translational Sciences [NCATS] U.S. Environmental Protection Agency [EPA] National Institutes of Environmental Health Sciences [NIEHS] National Toxicology Program [NTP] U.S. Food and Drug Administration [FDA] Cytochrome P450 (CYP) enzymes are membrane-bound hemeproteins that play a key role in metabolism of drugs and xenobiotics. […] The luciferin products formed are detected with a luciferin detection reagent, and the amount of light produced is proportional to CYP activity. […]
Records with an inconclusive call do not appear. The source made the active and inactive calls. The call rests on the fitted dose curve; in most records, active means well fitted inhibition curve with a large enough effect in the repeat runs; inconclusive means weak or mixed curves; inactive means no such curve, though single readings can be large or run the other way.
Allowed answers: t for active, f for inactive

Ask: State the result this test recorded for Cc1ccc(S)cc1 .
Result: f

Ask: State the result this test recorded for C/C=C(\C)C(=O)OCCC(C)CCC=C(C)C (stereo unspecified) .
Result: t

Ask: State the result this test recorded for CCCCCCCCCCCCCCC[C@H](O)[C@@H](N)CO .
Result: f

Ask: State the result this test recorded for CCCOC(=O)c1ccc(C(=O)OCCC)nc1 .
Result: f

Ask: State the result this test recorded for CC1=CC(=O)CC(C)(C)C1(O)/C=C/C(C)=C\C(=O)O (stereo unspecified) .
Result: f

Ask: State the result this test recorded for C/C(=N/NC(=O)c1ccncc1)C(=O)O .
Result: f

Ask: State the result this test recorded for CO[C@H]1C=CO[C@@]2(C)Oc3c(C)c(O)c4c(O)c(c5c(c4c3C2=O)=NC2(CCN(CC(C)C)CC2)N=5)NC(=O)/C(C)=C\C=C/[C@H](C)[C@H](O)[C@@H](C)[C@@H](O)[C@@H](C)[C@H](OC(C)=O)[C@@H]1C .
Result: t

Ask: State the result this test recorded for CCOC(=O)C(C)Oc1ccc(Oc2nc3ccc(Cl)cc3o2)cc1 (stereo unspecified) .
Result: f

Ask: State the result this test recorded for CC(C)(CCl)c1ccccc1 .
Result: f

Ask: State the result this test recorded for CC(C)(O)c1ccccc1CC[C@@H](SCC1(CC(=O)O)CC1)c1cccc(/C=C/c2ccc3ccc(Cl)cc3n2)c1 .
Result: f

Ask: State the result this test recorded for Cc1oc(C)c(C(=O)Nc2ccccc2)c1C .
Result: f

Ask: State the result this test recorded for CC(C)(C)C(=O)O .
Result: f

Ask: State the result this test recorded for CCCCCCCCCCOS(=O)(=O)O .
Result: f

Ask: State the result this test recorded for COC(=O)c1cc(Cl)ccc1NS(=O)(=O)C(F)(F)F .
Result: f

Ask: State the result this test recorded for CCCCC(CC)CNCC(CC)CCCC (stereo unspecified) .
Result: f

Ask: State the result this test recorded for C[N+]1(C)CCC(=C(c2ccccc2)c2ccccc2)CC1 .
Result: f

Ask: State the result this test recorded for Brc1cc(-c2ccc(Br)c(Br)c2Br)cc(Br)c1Br .
Result: f

Ask: State the result this test recorded for CCOC(=O)/C=C/C(=O)O .
Result: f

Ask: State the result this test recorded for O=C(NCCCN1CCOCC1)c1ccc(Cl)cc1 .
Result: f

Ask: State the result this test recorded for CO[Si](C)(OC)OC .
Result: t

Ask: State the result this test recorded for CC(C)CCCCCOC(=O)CCCCC(=O)OCCCCCC(C)C .
Result: t

Ask: State the result this test recorded for CCCCOC(=O)CCS .
Result: f

Ask: State the result this test recorded for O=Cc1c(Cl)cccc1Cl .
Result: f

Ask: State the result this test recorded for COc1ccc([C@@H]2Sc3ccccc3NC(=O)[C@@H]2O)cc1 .
Result: f

Ask: State the result this test recorded for CCCOCCOCCO .
Result: f

Ask: State the result this test recorded for O=C(O)c1cccc(O)c1 .
Result: f
